Recorded measurements of remaining activity at 10 µM, one per entry
MEASURED_ON: PI3K (p110d/p85a) (Homo sapiens, UniProt O00329)
Construct: Eurofins Pharma Discovery Services (contract assay service)
Sequence (O00329 whole entry): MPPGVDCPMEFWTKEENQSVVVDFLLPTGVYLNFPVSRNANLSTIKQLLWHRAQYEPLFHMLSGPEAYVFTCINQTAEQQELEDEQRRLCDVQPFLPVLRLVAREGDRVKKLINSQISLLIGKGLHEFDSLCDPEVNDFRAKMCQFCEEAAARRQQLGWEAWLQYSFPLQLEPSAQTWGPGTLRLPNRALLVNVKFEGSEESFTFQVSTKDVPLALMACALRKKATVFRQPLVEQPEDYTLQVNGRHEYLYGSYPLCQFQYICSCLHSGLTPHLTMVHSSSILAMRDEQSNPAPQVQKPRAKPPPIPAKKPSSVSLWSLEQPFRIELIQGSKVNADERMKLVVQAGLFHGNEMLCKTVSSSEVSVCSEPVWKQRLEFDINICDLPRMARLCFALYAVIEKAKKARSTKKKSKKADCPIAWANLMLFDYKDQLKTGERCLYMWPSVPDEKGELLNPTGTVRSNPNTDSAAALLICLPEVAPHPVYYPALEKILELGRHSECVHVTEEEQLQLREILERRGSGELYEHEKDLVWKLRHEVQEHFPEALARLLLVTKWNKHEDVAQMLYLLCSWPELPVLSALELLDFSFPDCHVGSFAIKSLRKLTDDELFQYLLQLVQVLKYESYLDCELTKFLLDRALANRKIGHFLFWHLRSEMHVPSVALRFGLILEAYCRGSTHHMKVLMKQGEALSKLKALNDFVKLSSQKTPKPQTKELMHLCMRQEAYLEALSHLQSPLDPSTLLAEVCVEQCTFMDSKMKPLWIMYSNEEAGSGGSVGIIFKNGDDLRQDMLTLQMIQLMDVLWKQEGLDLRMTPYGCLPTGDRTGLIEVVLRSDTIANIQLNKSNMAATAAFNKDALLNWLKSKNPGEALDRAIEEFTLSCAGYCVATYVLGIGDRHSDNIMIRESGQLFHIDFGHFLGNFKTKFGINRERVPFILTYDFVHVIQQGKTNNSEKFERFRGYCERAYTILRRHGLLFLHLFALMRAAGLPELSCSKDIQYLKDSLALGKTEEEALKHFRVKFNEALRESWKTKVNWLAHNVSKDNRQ
Sequence (P27986 whole entry partner): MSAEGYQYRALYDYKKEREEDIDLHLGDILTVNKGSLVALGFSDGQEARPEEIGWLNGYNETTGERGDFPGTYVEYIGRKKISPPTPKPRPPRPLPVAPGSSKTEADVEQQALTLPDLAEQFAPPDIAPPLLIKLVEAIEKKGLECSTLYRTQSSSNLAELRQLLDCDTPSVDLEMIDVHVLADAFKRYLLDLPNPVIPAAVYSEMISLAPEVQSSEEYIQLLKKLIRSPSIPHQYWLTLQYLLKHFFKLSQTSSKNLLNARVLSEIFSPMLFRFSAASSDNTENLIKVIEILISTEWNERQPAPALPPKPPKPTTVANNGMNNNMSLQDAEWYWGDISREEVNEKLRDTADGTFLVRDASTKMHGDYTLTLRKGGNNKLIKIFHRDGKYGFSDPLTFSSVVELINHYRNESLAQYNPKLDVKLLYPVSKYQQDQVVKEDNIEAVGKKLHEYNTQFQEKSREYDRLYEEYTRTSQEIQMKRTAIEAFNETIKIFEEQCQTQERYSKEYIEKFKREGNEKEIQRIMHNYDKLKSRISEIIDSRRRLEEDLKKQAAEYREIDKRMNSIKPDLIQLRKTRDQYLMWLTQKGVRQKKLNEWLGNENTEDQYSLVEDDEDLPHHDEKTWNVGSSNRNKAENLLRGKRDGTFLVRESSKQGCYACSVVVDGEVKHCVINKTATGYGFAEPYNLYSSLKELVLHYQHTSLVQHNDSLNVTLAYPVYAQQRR
PROTOCOL_SUMMARY: kinase selectivity panel
Assay type: biochemical
CONDITION_LABEL: 10 μM; read-out: percentage of control activity (POC), PI3K (p110d/p85a)
Quick note: number first, unit second.

# COMPOUND, remaining activity at 10 µM
data = [
    ("CC(C)(C)N1CCC(c2cc(-c3ccc(F)cc3Cl)c3cc[n+]([O-])c(-c4c(Cl)cccc4Cl)c3n2)CC1", "93%"),
    ("Cc1ccc(C(=O)NCC2CC2)cc1-c1ccc2c(c1)NC(=O)C21CCCC1", "90%"),
    ("COc1c(NC(=O)c2ccc(C)c(-c3nnc4c(NCC(C)(C)C)nccn34)c2)cc(C(C)(C)C)cc1NS(C)(=O)=O [compound 7, reference compound]", "90%"),
]

# input Consider the compound shown here: Cn1cc(-c2cccc(-c3nc(C(=O)NC4C5CC6CC4CC(O)(C6)C5)c(N)nc3N)c2)cn1 (centres unmarked) What is its recorded remaining activity at 10 µM?
# output 21%

# input Please do the same for CS(=O)(=O)N1CCN(c2ccc(Nc3ncc(C(N)=O)c(NC4CC4)n3)cc2)CC1 as well.
# output 90%

* * *

MEASURED_ON: EphB4 (Homo sapiens, UniProt P54760)
Construct: purchased Eurofins Pharma Discovery Services (KinaseProfiler; Cerep BioPrint panel)
Sequence (P54760 16-987): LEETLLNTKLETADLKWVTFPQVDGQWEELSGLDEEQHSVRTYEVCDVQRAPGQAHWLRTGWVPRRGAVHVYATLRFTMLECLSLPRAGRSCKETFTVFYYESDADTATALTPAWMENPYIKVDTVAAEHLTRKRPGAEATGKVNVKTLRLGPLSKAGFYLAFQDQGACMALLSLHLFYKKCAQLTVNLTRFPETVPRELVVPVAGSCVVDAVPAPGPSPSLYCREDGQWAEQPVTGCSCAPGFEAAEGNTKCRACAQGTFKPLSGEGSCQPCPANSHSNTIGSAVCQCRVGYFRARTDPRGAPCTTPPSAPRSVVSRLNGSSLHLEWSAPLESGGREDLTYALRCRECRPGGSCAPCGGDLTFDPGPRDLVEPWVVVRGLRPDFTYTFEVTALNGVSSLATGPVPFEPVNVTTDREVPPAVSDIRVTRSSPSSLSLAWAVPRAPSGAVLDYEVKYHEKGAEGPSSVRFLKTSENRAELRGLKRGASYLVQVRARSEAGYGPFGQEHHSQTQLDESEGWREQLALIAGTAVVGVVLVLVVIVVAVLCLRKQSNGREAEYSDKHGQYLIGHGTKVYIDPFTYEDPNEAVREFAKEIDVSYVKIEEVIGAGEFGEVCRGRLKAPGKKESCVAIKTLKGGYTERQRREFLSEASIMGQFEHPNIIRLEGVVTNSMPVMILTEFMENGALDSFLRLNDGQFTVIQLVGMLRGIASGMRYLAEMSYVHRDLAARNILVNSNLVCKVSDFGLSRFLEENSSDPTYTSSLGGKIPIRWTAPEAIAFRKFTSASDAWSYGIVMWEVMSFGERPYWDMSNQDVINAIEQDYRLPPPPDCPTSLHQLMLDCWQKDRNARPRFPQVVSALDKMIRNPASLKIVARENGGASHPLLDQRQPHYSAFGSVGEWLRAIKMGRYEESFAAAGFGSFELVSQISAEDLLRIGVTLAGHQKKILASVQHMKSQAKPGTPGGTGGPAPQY
PROTOCOL_SUMMARY: kinase selectivity panel
Type: biochemical
CONDITION_LABEL: read-out: percentage of control activity (POC), EphB4
Kindly apply the following: true (1) if remaining activity at 10 µM is less than 90%, false (0) in every other case.

Solved cases (2 shown):
# COMPOUND, QUALITATIVE_LABEL
rows = [
    ("Cc1ccc(C(=O)NCC2CC2)cc1-c1ccc2c(c1)NC(=O)C21CCCC1 [compound 3]", "false (0)"),
    ("Cn1cc(-c2cccc(-c3nc(C(=O)NC4C5CC6CC4CC(O)(C6)C5)c(N)nc3N)c2)cn1 (centres unmarked) [compound 4]", "false (0)"),
]

# input Determine whether this compound shows remaining activity at 10 µM lower than 90% (ties excluded): CS(=O)(=O)N1CCN(c2ccc(Nc3ncc(C(N)=O)c(NC4CC4)n3)cc2)CC1 [compound 5]
# output true (1)

* * *

Recorded measurements of remaining activity at 10 µM, one per entry
MEASURED_ON: PKBα (Homo sapiens, UniProt P31749)
Construct: purchased Eurofins Pharma Discovery Services (KinaseProfiler; Cerep BioPrint panel)
Sequence (P31749 whole entry): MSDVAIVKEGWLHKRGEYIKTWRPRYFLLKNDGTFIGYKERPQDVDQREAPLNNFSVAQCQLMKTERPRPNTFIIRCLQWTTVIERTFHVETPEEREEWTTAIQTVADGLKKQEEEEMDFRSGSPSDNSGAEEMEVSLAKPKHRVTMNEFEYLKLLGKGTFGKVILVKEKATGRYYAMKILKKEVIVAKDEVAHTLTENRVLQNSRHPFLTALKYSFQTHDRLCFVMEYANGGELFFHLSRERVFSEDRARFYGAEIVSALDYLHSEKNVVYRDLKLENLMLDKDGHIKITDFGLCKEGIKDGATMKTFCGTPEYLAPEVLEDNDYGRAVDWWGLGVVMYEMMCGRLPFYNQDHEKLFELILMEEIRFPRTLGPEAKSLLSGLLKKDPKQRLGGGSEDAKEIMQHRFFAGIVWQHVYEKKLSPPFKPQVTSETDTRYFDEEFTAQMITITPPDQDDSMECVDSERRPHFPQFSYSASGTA
PROTOCOL_SUMMARY: kinase selectivity panel
Assay type: biochemical
CONDITION_LABEL: read-out: percentage of control activity (POC), PKBα
// units = %; emit number, no label

# COMPOUND, remaining activity at 10 µM (%)
records = [
    ("CC(C)(C)N1CCC(c2cc(-c3ccc(F)cc3Cl)c3cc[n+]([O-])c(-c4c(Cl)cccc4Cl)c3n2)CC1 [compound 2]", 95),
    ("COc1c(NC(=O)c2ccc(C)c(-c3nnc4c(NCC(C)(C)C)nccn34)c2)cc(C(C)(C)C)cc1NS(C)(=O)=O [compound 7, reference compound]", 99),
    ("CS(=O)(=O)N1CCN(c2ccc(Nc3ncc(C(N)=O)c(NC4CC4)n3)cc2)CC1 [compound 5]", 86),
]

# input Consider the compound shown here: Cc1ccc(C(=O)NCC2CC2)cc1-c1ccc2c(c1)NC(=O)C21CCCC1 [compound 3] What is its recorded remaining activity at 10 µM?
# output 91

# input Please do the same for Cn1cc(-c2cccc(-c3nc(C(=O)NC4C5CC6CC4CC(O)(C6)C5)c(N)nc3N)c2)cn1 (centres unmarked) [compound 4] as well.
# output 96
